System: SNB-19 CNS
experiment: NCI tumour cell line growth inhibition, 48 h
result_type: TGI

Below: 4 molecules and their reported TGI.
[[record]]
molecule = "CC1(C)N=c2cc3c(cc2N1c1ccc(Cl)cc1)=Nc1ccccc1N3c1ccc(Cl)cc1"
system_tested = "SNB-19 CNS"
recorded_value = "> 100 µM"

[[record]]
molecule = "FC(F)(F)c1cc(NC(=S)N2c3ccccc3-n3cccc3C2c2cccnc2)cc(C(F)(F)F)c1 (stereo not given)"
system_tested = "SNB-19 CNS"
recorded_value = "29.9 µM"

[[record]]
molecule = "O=C(c1ccccc1)C1OC1C(=O)c1ccccc1 (stereo not given)"
system_tested = "SNB-19 CNS"
recorded_value = "> 100 µM"

[[record]]
molecule = "CCN1C(=O)N(CC)C2C1NN=c1s/c(=C\\c3ccc(C(F)(F)F)cc3)c(=O)n12 (stereo not given)"
system_tested = "SNB-19 CNS"
recorded_value = "> 44.8 µM"


The recorded TGI for entry CC(=O)C1C(=O)C(C(C)=O)C2C3C=CC(C3)C12 (stereo not given) equals > 100 µM

The recorded TGI for entry `CCN(CC)CCCNc1n[n+]([O-])c2ccccc2[n+]1[O-]` equals > 100 µM

The recorded TGI for entry COc1nc2ccc(CNc3ccc(C(=O)NC(CCC(=O)O)C(=O)O)cc3)cc2nc1OC (stereo not given) equals > 100 µM

The recorded TGI for entry `O=C1/C(=C/C=C/c2ccccc2)N=C(c2ccccc2)N1c1ccc(S(=O)(=O)Nc2nccs2)cc1` equals > 100 µM

The recorded TGI for entry `O=C(O)CCSC(=O)Nc1cccc2ccccc12` equals > 100 µM

The recorded TGI for entry `COc1ccc2c(=O)c3c([nH]c2c1)OCC3=O` equals > 100 µM

---

Tested on: A498 renal
experiment: NCI tumour cell line growth inhibition, 48 h
Form field: TGI (one value per entry).

[[record]]
compound = "O=C1c2ccccc2C(=O)c2c1oc1c2c(=O)[nH]c2ccc(Cl)cc21"
result_type = "TGI"
recorded_value = "0.959 µM"

[[record]]
compound = "Cc1cccc2c(NCCN(C)C)c3cccc(C(=O)NCCN(C)C)c3nc12"
result_type = "TGI"
recorded_value = "4.06 µM"

[[record]]
compound = "COc1cc2c(c(OC)c1OC)-c1c(c3ccc([N+](=O)[O-])cc3c(=O)n1CCCBr)C2=O"
result_type = "TGI"
recorded_value = "> 100 µM"

[[record]]
compound = "C/C=C\\C(CC(=O)NCCC1CN(C(=O)OCc2ccccc2)c2ccccc21)CC(=O)OC (stereo not given)"
result_type = "TGI"
recorded_value = "> 100 µM"

[[record]]
compound = "CCOC(=O)c1c2c(n3ccc(NC(=O)CCN4CCCCC4)cc13)C(=O)c1ncccc1C2=O"
result_type = "TGI"
recorded_value = "29 µM"

[[record]]
compound = "CCOC(=O)[C@@]1(C(C)=O)CC(C)=C(C)C[S@]1=O"
result_type = "TGI"
recorded_value = "> 100 µM"


The recorded TGI for entry O=S1(=O)c2ccccc2N2C(c3ccccc3)=NOC2(c2ccccc2)CC1c1ccc(Br)cc1 (stereo not given) equals > 100 µM

The recorded TGI for entry O=C(CC1(O)C(=O)Nc2ccccc21)c1ccc(Cl)cc1Cl (stereo not given) equals > 100 µM

The recorded TGI for entry Oc1ccc(C2Oc3cc(O)cc4c3C2c2cc(O)cc3c2C(c2cc(O)cc5c2C4C(c2ccc(O)cc2)O5)C(c2ccc(O)cc2)O3)cc1 (stereo not given) equals > 25 µM

The recorded TGI for entry `CCCCC(=O)c1c(O)ccc2c(C)cc(=O)oc12` equals > 100 µM

The recorded TGI for entry `COc1ccc2c(=O)c3c([nH]c2c1)OCC3=O` equals > 100 µM

The recorded TGI for entry `C=CCOc1ccc(N)c([N+](=O)[O-])c1` equals > 100 µM

The recorded TGI for entry CCCCCCCC(=O)OCC1OC(n2cc(F)c(=O)[nH]c2=O)C(N)C(O)C1O (stereo not given) equals > 100 µM

The recorded TGI for entry `O=C1NC(=O)C(C(c2ccc([N+](=O)[O-])cc2)C2C(=O)NC(=O)NC2=O)C(=O)N1` equals > 100 µM

---

System: HS 578T breast
experiment: NCI tumour cell line growth inhibition, 48 h
result_type: TGI (µM)
Write down the numeric answer in µM and omit the unit.

[[record]]
compound = "c1cc(C2=NCCO2)c2ccsc2c1"
result_type = "TGI"
recorded_value = 49.8


The recorded TGI for entry `C#Cc1cccc(NC(=O)c2cccc(NC(=O)CCl)c2)c1` equals 76.2

The recorded TGI for entry COc1ccc(C2CC(c3ccc(OC)cc3O)=NN2c2ccc(S(N)(=O)=O)cc2)cc1 (stereo unspecified) equals 98.9

The recorded TGI for entry COCN1C(=N)C(C(=O)OC(C)(C)C)=C2C=C(O)C=CC21C (stereo unspecified) equals 82.9

The recorded TGI for entry FC(F)(F)c1cc(NC(=S)N2c3ccccc3-n3cccc3C2c2cccnc2)cc(C(F)(F)F)c1 (stereo unspecified) equals 40.6

The recorded TGI for entry `COc1ccc(C(=O)CCN(C)C)c2ccccc12` equals 57

The recorded TGI for entry CC[C@@]1(O)C[C@H](OC2CC(N(C)C)C(OC3CC(O)C(OC4CCC(=O)C(C)O4)C(C)O3)C(C)O2)c2c(cc3c(c2O)C(=O)c2c(O)cccc2C3=O)C1C(=O)OC (stereo partly specified) equals 0.618

The recorded TGI for entry `Cc1ccc2[nH]c(O)c(N=Nc3ccccc3[N+](=O)[O-])c2c1` equals 28.9

The recorded TGI for entry `CCOC(=O)c1c2c(n3ccc(NC(=O)CCN4CCCCC4)cc13)C(=O)c1ncccc1C2=O` equals 6.57

---

Tested on: SK-MEL-5 melanoma
experiment: NCI tumour cell line growth inhibition, 48 h
Form field: TGI (one value per entry).

Below: 5 compounds and their reported TGI.
[[record]]
compound = "c1cc(C2=NCCO2)c2ccsc2c1"
recorded_value = "> 100 µM"

[[record]]
compound = "CCn1c(SCC(=O)Nc2cc(C(F)(F)F)ccc2Cl)nc2ccccc2c1=O"
recorded_value = "> 100 µM"

[[record]]
compound = "N#Cc1ccccc1NC(=O)C(=O)C(C(=O)c1ccncc1)C1OC(=O)c2ccccc21 (stereo not given)"
recorded_value = "> 100 µM"

[[record]]
compound = "O=c1oc2ccc(Cl)cc2c(=O)n1-c1ccc(F)cc1F"
recorded_value = "2.46 µM"

[[record]]
compound = "O=C(Nc1n[nH]c2nc(-c3ccc(O)cc3)c(Br)cc12)C1CC1"
recorded_value = "4.07 µM"


The recorded TGI for entry `COc1ccc(C(=O)c2nc3ccccc3nc2N2CCN(c3ccccc3)CC2)cc1OC` equals > 100 µM

The recorded TGI for entry `N#Cc1ccc([N+](=O)[O-])cc1NC(N)=S` equals > 100 µM

The recorded TGI for entry CC(C)(C)OC(=O)N1CC(C)(C)N2C(=O)C3(CCCO3)C12 (stereo not given) equals > 100 µM

The recorded TGI for entry CN1c2c(nc(N)[nH]c2=O)NCC1CCNc1ccc(C(=O)NC(CCC(=O)O)C(=O)O)cc1 (stereo not given) equals 2470 µM

The recorded TGI for entry `O=C1CCCCN1` equals > 1120 µM

---

Test system: NCI-H522 lung
experiment: NCI tumour cell line growth inhibition, 48 h
Form field: GI50 (one value per entry).

Below: 4 compounds and their reported GI50.
[[record]]
mol = "CC1=C2[C@@H](CC1)[C@]1(C)O[C@@](C(C)C)(C[C@H]1OC(=O)CO)[C@H]2OC(=O)CCCc1ccccc1"
result_type = "GI50"
recorded_value = "7.51 µM"

[[record]]
mol = "O=C(Nc1ccccc1Cl)c1ccc(NC2=C(Cl)C(=O)N(C3CCCCC3)C2=O)cc1"
result_type = "GI50"
recorded_value = "6.23 µM"

[[record]]
mol = "CCOC(=O)Nc1ccc2c(c1)C(=O)N(CC)c1ccccc1O2"
result_type = "GI50"
recorded_value = "0.0797 µM"

[[record]]
mol = "C1C[OH+]CCNCC[OH+]CC[OH+]CCN1.N.[Cl-].[Pt+4]"
result_type = "GI50"
recorded_value = "14.2 µM"


Record `CCC[CH2][Sn]1([CH2]CCC)[O]CC[S]1` / NCI-H522 lung, GI50 recorded as 0.041 µM

---

Form field: TGI (one value per entry).
Test system: SF-295 CNS
experiment: NCI tumour cell line growth inhibition, 48 h

[[record]]
compound = "Nc1ccn(CCOC(c2ccccc2)P(=O)(O)O)c(=O)n1 (stereo unspecified)"
recorded_value = "> 100 µM"

[[record]]
compound = "COc1ccc(/C=C2/SC(=Nc3ccccc3)N(NC(=O)Cc3ccccc3)C2=O)c(OC)c1"
recorded_value = "> 100 µM"

[[record]]
compound = "N#Cc1ccccc1NC(=O)C(=O)C(C(=O)c1ccncc1)C1OC(=O)c2ccccc21 (stereo unspecified)"
recorded_value = "> 100 µM"

[[record]]
compound = "CC(=O)NCc1c(C(N)=O)ncn1Cc1ccccc1"
recorded_value = "> 100 µM"

[[record]]
compound = "Cc1cccc(N=Cc2ccc(N(CCC#N)S(=O)(=O)c3ccccc3)cc2C)c1"
recorded_value = "> 100 µM"

[[record]]
compound = "Cc1ccc2[nH]c(C(=O)NN3C(=O)C(C)SC34CCC(C)CC4)c(-c3ccccc3)c2c1 (stereo unspecified)"
recorded_value = "32.9 µM"


The recorded TGI for entry `COc1ccc(C(=O)CCN(C)C)c2ccccc12` equals > 100 µM

The recorded TGI for entry `Cn1ccc(=NS(=O)(=O)c2ccccc2)cc1` equals > 100 µM

The recorded TGI for entry `COc1ccc(N/N=C/C2=CC(C)(C)C(C#N)(C#N)C(O)=C2C#N)cc1` equals > 100 µM
